A collection of variants and their measured self-cleavage
B1: HDV Ribozyme (parent)
chain: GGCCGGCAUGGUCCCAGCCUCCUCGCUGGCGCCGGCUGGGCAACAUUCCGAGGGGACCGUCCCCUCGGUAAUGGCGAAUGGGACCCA

variants of: B1; test: self-cleavage, relative activity (ratio to wild type); higher = more cleavage; co-transcriptional
Measurement Type: self-cleavage

>  <Mutation String>
U46A G54C

>  <Result>
0.706

$$$$
>  <Mutation String>
U20G G38A

>  <Result>
0.0573

$$$$
>  <Mutation String>
C14G G29A

>  <Result>
0.107

$$$$
>  <Mutation String>
G76C G81A

>  <Result>
0.499

$$$$
>  <Mutation String>
C57A A70G

>  <Result>
0.852

$$$$
>  <Mutation String>
G2A G38A

>  <Result>
0.0314

$$$$
>  <Mutation String>
G17C A42C

>  <Result>
0.0723

$$$$
>  <Mutation String>
C32U G59A

>  <Result>
0.963

$$$$
>  <Mutation String>
U12A C21U

>  <Result>
0.0831

$$$$
>  <Mutation String>
G35U C44A

>  <Result>
0

$$$$
>  <Mutation String>
G29A U65C

>  <Result>
0.17

$$$$
